# Test system: LATS2
Parameter: Kd (nM)

> print(dat)
              compound.smiles  units.of.measure  value.observed
1  CCn1c(-c2nonc2N)nc2ccccc21                nM            1800

----------
This listing pairs molecules with measured %Inh.
# Test system: MAP4K2
# Run parameters: concentration: 1 μM, replicates: in singlicate; n = 1
Parameter: %Inh (%)

> print(dat)
                                   molecule  value.observed
1  CCC(=O)c1c(-c2ccccc2)c2cc(Cl)ccc2c(=O)n1Cc1ccc(C(=O)O)cc1              12
2  Cc1nnc(-c2ccc3ncn(-c4ccc(S(C)=O)cc4)c3c2)o1 (centres unmarked)             100
3  OCCCNc1nccc(-c2c(-c3cccc(C(F)(F)F)c3)nn3cc(C(F)(F)F)ccc23)n1 [GW630813]               0
4  O=c1cc(N2CCOCC2)nc2n(Cc3ccc(F)c(Cl)c3)ccn12 [GSK2297099]               0
5  Cc1ccc(Oc2ccc(Nc3ncnc4cc[nH]c34)cc2C)cn1               0

----------
# System: PFTK1
# Construct: gene CDK14
pKd: −log10 of the molar value.
Parameter: pKd

> print(dat)
                                   molecule  parameter  value.observed
1  Cc1nn2c(=O)cc(N3CCOCC3)nc2n1Cc1cccc(Cl)c1Cl [GSK2342769]        pKd          < 5.00

----------
# Test system: NEK9
# Run parameters: concentration: 1 μM, replicates: in singlicate; n = 1
This listing pairs compounds with measured %Inh.
Parameter: %Inh

> print(dat)
                            compound.smiles  value.observed
1     Nc1nc(-c2ccccc2F)c(-c2ccnc3ccccc23)s1             53%
2    Fc1cccc(CSc2nnc(-c3ccc4c(c3)CCO4)o2)c1             12%
3  Cn1c(=O)c(F)c(Nc2ccc(I)cc2F)c2c(=O)n(OC[C@H](O)CO)cnc21              0%
4  CCc1ccc(-c2ccc3c(c2)-c2nn(C)cc2S(=O)(=O)N3C)cc1              0%
5  COC(=O)c1c(-c2ccccc2)c2cc(Br)ccc2c(=O)n1Cc1ccc(NC(=O)CCC(=O)O)cc1             11%

----------
This listing pairs molecules with measured %Inh.
# System: ERK2
# Construct: gene MAPK1
# Run parameters: concentration: 1 μM, replicates: in singlicate; n = 1
Parameter: %Inh (%)

> print(dat)
                                    molecule  study.system  parameter  units.of.measure  value.observed
 1     CCCNC(=O)Nc1ccc(Oc2ncnc3ccn(C)c23)cc1          ERK2       %Inh                 %               0
 2  Nc1nc(-c2ccccc2F)c(-c2ccnc3ccccc23)s1 [GW560459]          ERK2       %Inh                 %               0
 3  O=C(Nc1n[nH]c2nc(-c3ccccc3)c(Br)cc12)C1CC1 [SB-708998]          ERK2       %Inh                 %               0
 4  COc1cc2nccc(Nc3ccc(OCc4ccc(NC(C)=O)cc4)cc3)c2cc1OC.Cl [GW440135]          ERK2       %Inh                 %               0
 5  Nc1n[nH]c2nnc(-c3ccccc3)c(-c3ccccc3)c12 [GW554060]          ERK2       %Inh                 %               0
 6  Cc1nnc(-c2ccc(C)c(-c3ccc(C(=O)O)cc3)c2)o1 [GW608005]          ERK2       %Inh                 %               0
 7  Cl.NS(=O)(=O)c1cccc(Nc2cc(-c3ccc(F)cc3)n[nH]2)c1 [GW824645]          ERK2       %Inh                 %               0
 8  COc1cc(Nc2ccnc3ccc(C(F)(F)F)cc23)cc(OC)c1OC [GW577382]          ERK2       %Inh                 %               5
 9  Cc1nnc(-c2ccc3ncn(-c4ccc(S(C)=O)cc4)c3c2)o1 (stereo not shown)          ERK2       %Inh                 %              26
10  Cc1nc(N(C)[C@H]2CN(C(=O)CC#N)CC[C@H]2C)c2cc[nH]c2n1          ERK2       %Inh                 %              13
11  O=C(Nc1n[nH]c2cc(-c3ccccc3F)ccc12)C1CC1 [SB-733371]          ERK2       %Inh                 %               0
12  Cn1c(=O)c(F)c(Nc2ccc(I)cc2F)c2c(=O)n(OC[C@H](O)CO)cnc21          ERK2       %Inh                 %               8
13  COc1cc2ncn(-c3cc(OCc4ccncc4)c(C(N)=O)s3)c2cc1OC [GSK336313]          ERK2       %Inh                 %               0
14  COC(=O)c1c(-c2ccccc2)c2cc(Br)ccc2c(=O)n1Cc1ccc(S(C)(=O)=O)cc1          ERK2       %Inh                 %              38
15  COc1ccc(-c2cc3c(C)nc(N)nc3n([C@H]3CC[C@H](O)CC3)c2=O)cn1          ERK2       %Inh                 %               0
16  COc1cc(Nc2nccc(N3CCC(NC(=O)C(C)c4ccc(Cl)cc4)C3)n2)cc(OC)c1OC (stereo not shown) [GSK1379757]          ERK2       %Inh                 %               0
17  O=C(NCc1cccs1)c1cc(C(=O)c2c(Cl)cccc2Cl)c[nH]1 [GW823670]          ERK2       %Inh                 %               5
18  CCS(=O)c1ccc(-c2coc3ccc(-c4nnc(C)o4)cc23)cc1 (stereo not shown)          ERK2       %Inh                 %              13
19  Cc1ccc(-c2ccc3c(ccc4sc5c(c43)NC[C@@H](C)N=C5N(C)C)n2)cn1          ERK2       %Inh                 %               0
